- ASSAYED_TARGET: Estrogen receptor (Homo sapiens)
- MEASUREMENT_DESCRIPTION: ERalpha ligand binders by competition, primary screen, cell-based, Cos7 ERalpha-GFP, flow cytometry (AID 1211);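 also: 0% = DMSO vehicle wells and 100% = no E2-Alexa633 signal left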
- CONDITION_DESCRIPTION: fluorescent ligand competition, binding inhibition, at 0.1 µM, stronger effect = higher value
Recorded inhibition of ligand binding by entry
Could you give the number and then its unit, please?

Study these solved cases before continuing.
[[record]]
compound = "O=c1cc(-c2ccc(O)c(-c3c(O)cc(O)c4c(=O)cc(-c5ccc(O)cc5)oc34)c2)oc2cc(O)cc(O)c12"
reported_metric = "inhibition of ligand binding"
result = "9%"

[[record]]
compound = "O=C1c2ccccc2C(=O)N1/N=C/c1ccc(O)c(O)c1"
reported_metric = "inhibition of ligand binding"
result = "23%"

[[record]]
compound = "COC(=O)c1ccc2c(=O)n(CC3CCCO3)c(SCC(=O)Nc3ccccc3Cl)nc2c1 (configuration not stated)"
reported_metric = "inhibition of ligand binding"
result = "37%"


## Input What value of measured inhibition of ligand binding is listed for COc1cc2cc(C(c3nnnn3C3CCCC3)N3CCc4ccccc43)c(=O)[nH]c2cc1OC (configuration not stated) ?
## Output 56%

## Input What value of measured inhibition of ligand binding is listed for N#Cc1c(NCCN)nc(NCc2ccccc2)c2c1CCN(Cc1ccccc1)C2 ?
## Output 15%
